The origin of these recorded values is ChEMBL document CHEMBL1133690.

Reported ACT is given for each of the following molecules.
- TARGET OR TEST SYSTEM: Beta-3 adrenergic receptor (Homo sapiens)
- Sequence (P13945 whole entry, looked up): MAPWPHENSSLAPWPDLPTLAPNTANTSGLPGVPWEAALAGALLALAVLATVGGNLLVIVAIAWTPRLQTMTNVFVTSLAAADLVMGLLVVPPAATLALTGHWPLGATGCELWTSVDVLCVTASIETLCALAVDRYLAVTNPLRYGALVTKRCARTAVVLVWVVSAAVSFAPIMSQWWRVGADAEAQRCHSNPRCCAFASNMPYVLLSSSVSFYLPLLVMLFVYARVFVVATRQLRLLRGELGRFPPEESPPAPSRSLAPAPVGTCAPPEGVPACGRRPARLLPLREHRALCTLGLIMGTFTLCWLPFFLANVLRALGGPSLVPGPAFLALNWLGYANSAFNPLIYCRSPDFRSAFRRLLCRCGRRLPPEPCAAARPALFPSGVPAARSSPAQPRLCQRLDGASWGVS
- TEST DETAILS: Agonistic efficacy at human beta 3 adrenergic receptor as percent adenylyl cyclase activation relative to isoproterenol
- Type: functional
METRIC: ACT (%)

| SMILES TEXT | TARGET OR TEST SYSTEM | QUANTITATIVE RESULT |
| --- | --- | --- |
| O=S(=O)(Nc1ccc(CCNC[C@H](O)c2cccnc2)cc1)c1ccc(-c2nc(-c3cc(F)c(F)c(F)c3)cs2)cc1 | Beta-3 adrenergic receptor (Homo sapiens) | 100 |
| O=S(=O)(Nc1ccc(CCNC[C@H](O)c2cccnc2)cc1)c1ccc(-c2nc(-c3cccc(F)c3F)cs2)cc1 | Beta-3 adrenergic receptor (Homo sapiens) | 99 |
| O=S(=O)(Nc1ccc(CCNC[C@H](O)c2cccnc2)cc1)c1ccc(-c2nc(-c3ccccc3C(F)(F)F)cs2)cc1 | Beta-3 adrenergic receptor (Homo sapiens) | 82 |
| O=S(=O)(Nc1ccc(CCNC[C@H](O)c2cccnc2)cc1)c1ccc(-c2nc(-c3ccc(C(F)(F)F)cc3)cs2)cc1 | Beta-3 adrenergic receptor (Homo sapiens) | 94 |
